Provide the recorded melting point for the entries that follow.

Past entries and their recorded results:
> print(dat)
                                   compound       recorded.result
1  O=C(O)Cc1c(C(=O)c2nccs2)[nH]c2ccc(Cl)cc12 [Example 41]         230 to 231 °C
2  O=C(O)Cc1c(C(=O)c2ccncc2)[nH]c2cc(Cl)ccc12 [Example 94]         256 to 257 °C
3  Cc1cc(C(=O)c2[nH]c3cc(Cl)ccc3c2CC(=O)O)no1 [Example 227]         227 to 229 °C
4  CCc1ccnc(C(=O)c2[nH]c3cc(Cl)ccc3c2CC(=O)O)c1 [Example 58]  215 to 216 °C (dec.)
5  COCc1ccoc1C(=O)c1[nH]c2cc(Cl)ccc2c1CC(=O)O [Example 240]         212 to 213 °C

Lab note: each compound below needs its melting point filled in.
1. Cc1cccnc1C(=O)c1[nH]c2cc(Cl)ccc2c1CC(=O)O [Example 74]
2. CCOC(=O)Cc1c(C(=O)c2ccc(Cl)cc2)[nH]c2cc(Cl)ccc12 [Example 297]
3. Cc1cnc(C(=O)c2[nH]c3cc(Cl)ccc3c2CC(=O)O)c(C)c1 [Example 110]
4. Cc1cccc(C(=O)c2[nH]c3cc(Cl)ccc3c2CC(=O)O)n1 [Example 78]

195 to 196 °C
186 to 188 °C
199 to 200 °C
230 to 231 °C

Lab note: each compound below needs its melting point filled in.
1. Cc1ccnc(C(=O)c2[nH]c3ccc(Cl)cc3c2CC(=O)NCCN)c1 [Example 272]
2. O=C(O)Cc1c(C(=O)c2ccc(Cl)cn2)[nH]c2ccc(Cl)cc12 [Example 86]
3. Cc1cc(C(=O)c2[nH]c3ccc(Cl)cc3c2CC(=O)O)no1 [Example 225]
4. O=C(O)Cc1c(C(=O)c2ccccc2)[nH]c2cc(Cl)ccc12 [Example 2]
5. CC(C)(O)c1ccoc1C(=O)c1[nH]c2cc(Cl)ccc2c1CC(=O)O [Example 238]
6. COc1ccnc(C(=O)c2[nH]c3cc(Cl)ccc3c2CC(=O)O)c1 [Example 106]

1: 165.7 °C; 2: 259 to 260 °C; 3: 253 to 255 °C; 4: 183 to 186 °C; 5: 229 to 230 °C; 6: 213 °C (dec.)

Where these numbers come from: patent US6608070B1
